test system: CAKI-1 renal; assay: NCI-60 one-dose screen, 48 h; details: 10 µM unless noted
The panel holds about 83,000 compounds, 20% with a hit somewhere; the sample as a whole holds those more often. Activity calls are given as the source filed them. How the source made its calls: active means growth percent below 10; inactive means the rest.
API: response.call in active, inactive

Look up the recorded call for COC(=O)[C@]12CC[C@@H](C)[C@H](C)[C@@H]1C1=CC(=O)[C@@H]3[C@@]4(C)C[C@@H](OC(C)=O)[C@H](OC(C)=O)[C@@](C)(COC(C)=O)[C@@H]4C(=O)C[C@@]3(C)[C@]1(C)CC2 in this test.
inactive

Look up the recorded call for CC1(C)CC[C@]2(C(=O)Nc3ccccn3)CC[C@]3(C)C(=CC[C@@H]4[C@@]5(C)C/C(=C/c6ccncc6)C(=O)C(C)(C)[C@@H]5CC[C@]43C)[C@@H]2C1 in this test.
inactive

Look up the recorded call for COC(=O)[C@]12CC[C@@H](C)[C@H](C)[C@@H]1C1=CC[C@@H]3[C@@]4(C)C[C@@H](O)[C@H](O)[C@@](C)(CO)C4=CC[C@@]3(C)[C@]1(C)CC2 in this test.
active

Look up the recorded call for O=C(/C=C/c1cccc2ccccc12)Nc1ncc(Cc2ccccc2)s1 in this test.
inactive

Look up the recorded call for Nc1c(Cl)cc(N=Nc2ccccc2)cc1Cl in this test.
inactive
